# assay target: Ribosomal protein S6 kinase alpha-5 (Homo sapiens) (UniProt O75582);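 further: mean inhibition of MSK1, from screening of the GSK PKIS inhibitor set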
# Sequence (O75582 whole entry, looked up): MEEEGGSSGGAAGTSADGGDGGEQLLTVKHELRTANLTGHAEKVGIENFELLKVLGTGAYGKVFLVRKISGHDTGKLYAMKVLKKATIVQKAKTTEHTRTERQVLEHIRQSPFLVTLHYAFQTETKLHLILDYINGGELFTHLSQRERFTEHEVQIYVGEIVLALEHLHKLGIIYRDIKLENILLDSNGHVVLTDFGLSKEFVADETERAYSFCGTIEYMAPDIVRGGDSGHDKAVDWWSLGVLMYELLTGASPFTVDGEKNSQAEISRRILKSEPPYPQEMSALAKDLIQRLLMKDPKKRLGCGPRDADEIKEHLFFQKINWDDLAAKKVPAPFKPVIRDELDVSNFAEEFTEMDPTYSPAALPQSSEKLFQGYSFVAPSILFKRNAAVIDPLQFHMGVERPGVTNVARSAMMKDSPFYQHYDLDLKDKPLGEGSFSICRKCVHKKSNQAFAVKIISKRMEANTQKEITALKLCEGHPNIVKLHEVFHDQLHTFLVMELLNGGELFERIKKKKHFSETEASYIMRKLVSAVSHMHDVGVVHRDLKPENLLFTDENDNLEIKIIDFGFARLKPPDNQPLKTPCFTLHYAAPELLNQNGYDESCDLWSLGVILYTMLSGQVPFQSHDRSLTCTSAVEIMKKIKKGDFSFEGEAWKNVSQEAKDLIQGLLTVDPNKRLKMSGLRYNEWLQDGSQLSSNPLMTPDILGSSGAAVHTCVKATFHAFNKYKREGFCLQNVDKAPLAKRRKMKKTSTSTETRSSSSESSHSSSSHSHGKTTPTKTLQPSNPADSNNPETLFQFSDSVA
# condition description: at 1 µM
measure: inhibition (%)
# output: bare number, implied unit %

O=C1NC(=O)C(c2ccccc2Cl)=C1Nc1cccc(O)c1    5.41
O=C1Nc2ccc(C(=O)c3ccco3)cc2C1=Cc1cc(Cl)c(O)c(Cl)c1    5.05
CN(C)c1cc2c(Nc3ccc4nc(Cc5ccccc5)[nH]c4c3)ncnc2cn1    4.53
CCn1c(-c2nonc2N)nc2c(N3CCCC3)nccc21    11.2
Cc1ccc(C(=O)NC2CCCCC2)cc1-c1ccc(C(=O)NCC2CC2)cc1    3.23
NS(=O)(=O)c1cccc(-c2ccc3c(NC(=O)C4CC4)n[nH]c3c2)c1    1.96
NS(=O)(=O)c1ccc(N/N=C2\C(=O)Nc3ccc(C(=O)NCCc4c[nH]cn4)cc32)cc1    5.44
Nc1nc(-c2ccccn2)c(-c2ccc3ncccc3n2)s1    4.51
Cc1cc(O)cc(C)c1/C=C/c1cncc(-c2nn[nH]n2)c1    1.87
CNC(=O)c1cncc(/C=C/c2c(Cl)cccc2Cl)c1    1.1

Could you now look at the following compound, please?
Lab note: `CS(=O)(=O)Nc1ccc(N/C=C2\C(=O)Nc3ccccc32)cc1` gave inhibition of -0.97
